- Tested on: EPLC-272H
- Protocol details: relative viability (nuclei count vs DMSO), 5 days (fraction); higher = more cells survive
- Test settings: first compound 0.3162 µM
Endpoint name: relative viability
Respond using a number only.

Lookup: Query (compound): NC(=O)Nc1cc(-c2cccc(F)c2)sc1C(=O)N[C@H]1CCCNC1 [AZD7762] + Cc1nc(NC(=O)N2CCC[C@H]2C(N)=O)sc1-c1ccnc(C(C)(C)C(F)(F)F)c1 [Alpelisib] (partner 2 µM) ; field requested: relative viability
Found: 0.992

---

- System: NCI-H3122
- Protocol details: relative viability (nuclei count vs DMSO), 5 days (fraction); higher = more cells survive
- Test settings: first compound 0.01581 µM
Field: relative viability. Provide a value for each of the compounds that follow.
Just the number.

Lookup: relative viability for CC1(C)CCC(c2ccc(Cl)cc2)=C(CN2CCN(c3ccc(C(=O)NS(=O)(=O)c4ccc(N[C@H](CCN5CCOCC5)CSc5ccccc5)c(S(=O)(=O)C(F)(F)F)c4)cc3)CC2)C1 [Navitoclax] + Nc1nc2[nH]cc(CCc3ccc(C(=O)N[C@@H](CCC(=O)O)C(=O)O)cc3)c2c(=O)[nH]1 [Pemetrexed] (partner 0.2 µM) ?
Found: 0.176

Lookup: Give the measured relative viability of CC1(C)CCC(c2ccc(Cl)cc2)=C(CN2CCN(c3ccc(C(=O)NS(=O)(=O)c4ccc(N[C@H](CCN5CCOCC5)CSc5ccccc5)c(S(=O)(=O)C(F)(F)F)c4)cc3)CC2)C1 [Navitoclax] + C[C@]1(O)C[C@@H](c2nc(-c3ccc4ccc(-c5ccccc5)nc4c3)c3c(N)nccn32)C1 [Linsitinib] (partner 1 µM) .
Found: 1.08

Lookup: Fill in the blank: the reported relative viability of CC1(C)CCC(c2ccc(Cl)cc2)=C(CN2CCN(c3ccc(C(=O)NS(=O)(=O)c4ccc(N[C@H](CCN5CCOCC5)CSc5ccccc5)c(S(=O)(=O)C(F)(F)F)c4)cc3)CC2)C1 [Navitoclax] + O=C(c1cc(Cc2n[nH]c(=O)c3ccccc23)ccc1F)N1CCN(C(=O)C2CC2)CC1 [Olaparib] (partner 8 µM) is ____.
Found: 0.577
